B1: FADS1 (parent)
chain: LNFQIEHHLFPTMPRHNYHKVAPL

# Variants of: B1
# assay details: protein stability index of a GFP-peptide fusion (GPS, HEK-293T) (PSI 1-6); higher = more stable;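 note: lentivirally expressed fusions sorted by FACS into six bins by GFP to DsRed ratio, PSI derived from sequencing read proportions per bin multiplied by bin number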
# particulars: c terminus: a fixed tail appended
parameter measured: protein stability index
Form: value (number only, do not type unit).

Look up protein stability index of "LNFQIEHHLFPTMQRHNYHKVAPL" and report it.
2.54

Look up protein stability index of "LNFQIEHYLFPTMPRHNYHKVAPL" and report it.
2.57

Look up protein stability index of "LNFQIEHHLFPCMPRHNYHKVAPL" and report it.
2.74

Look up protein stability index of "LNFQIENHLFPTMPRHNYHKVAPL" and report it.
1.4

Look up protein stability index of "LNFQIEHHLFPTMPRHNYHGVAPL" and report it.
1.99

Look up protein stability index of "LNFQIEHHLFCTMPRHNYHKVAPL" and report it.
2.3

Look up protein stability index of "LNFQIEHHLFDTMPRHNYHKVAPL" and report it.
3.83

Look up protein stability index of "LNFQIEHHLFPTMPRKNYHKVAPL" and report it.
1.22

Look up protein stability index of "LNFQIEHHLFPTMPRHKYHKVAPL" and report it.
1.27

Look up protein stability index of "LNFQIEHHLPPTMPRHNYHKVAPL" and report it.
1.24

Look up protein stability index of "LNFQIEHHLFPTMPRTNYHKVAPL" and report it.
1.77
